System: MCF7 breast
measurementDescription: NCI-60 one-dose screen, 48 h (100 = growth as untreated, 0 = no growth, -100 = all killed)
experimentalConditions: 10 µM unless noted
Protocol: Growth inhibition of the MCF7 human tumor cell line is measured as a screen for anti-cancer activity. Cells are grown in 96 well plates and exposed to the test compound for 48 hours. Compounds are tested at a single concentration, which is 10^-5 M for most compounds. The reported endpoint is percent growth (GI% or GIPRCNT), where numbers from 0 - 100% represent growth inhibition, and numbers from -100% - 0 represent cell death. For example, a value of 40 represents 60% growth inhibition. […]
This is part of a sample that, as a whole, favours compounds with a hit. Of some 83,000 tested, about 20% had one in any assay.
measuredAttribute: growth (%)
Write down the numeric answer in % and omit the unit.

What value of measured growth is listed for CC[C@H](CC[C@@H](C)[C@H]1CC[C@H]2[C@@H]3CC[C@H]4C[C@]5(CC[C@]4(C)[C@H]3CC[C@]12C)OO[C@](C)(C(F)(F)F)O5)C(C)C ?
93.2

Would you kindly repeat that for CCOC(=O)P(=O)(OCC)OCC ?
106

Would you kindly repeat that for O=C/C=C/c1ccco1 ?
96
